# Tested on: SK-OV-3 ovarian
# ASSAY_TEXT: NCI tumour cell line growth inhibition, 48 h
Classification field: t = TGI at or over 8 µM; f = TGI under 8 µM.

{"COMPOUND": "CCOC(=O)c1c(N2CCCC2)[nH]c(=O)c(C(c2ccco2)c2c(O)c(C(=O)OCC)c(N3CCCC3)[nH]c2=O)c1O", "CLASS_NAME": "t"}
{"COMPOUND": "CN1c2ccccc2C(C)(C)C12C=Cc1cc(O)ccc1O2 (stereo not drawn)", "CLASS_NAME": "t"}
{"COMPOUND": "CC1(C)[C@@H](O[C@@H]2OC[C@@H](O[C@@H]3O[C@H](CO)[C@@H](O)[C@H](O)[C@H]3O[C@@H]3OC[C@@H](O)[C@H](O)[C@H]3O)[C@H](O)[C@H]2O[C@@H]2O[C@H](CO)[C@@H](O)[C@H](O)[C@H]2O)CC[C@]2(C)[C@H]3CC[C@]45OC[C@@]6(CC[C@](C)(C=O)C[C@H]64)[C@H](O)C[C@@]5(C)[C@]3(C)CC[C@@H]12", "CLASS_NAME": "f"}
{"COMPOUND": "Fc1ccc(Nc2nc3nonc3nc2Nc2ccc(F)cc2)cc1", "CLASS_NAME": "f"}
{"COMPOUND": "COCOc1c(C(O[Si](C)(C)C(C)(C)C)c2cnc(Sc3ccccc3)n2C)ccc(OC)c1OC (stereo not drawn)", "CLASS_NAME": "f"}
{"COMPOUND": "CCSc1cc(=O)n(C)c(=O)n1C", "CLASS_NAME": "t"}
{"COMPOUND": "CN1CCC(CN2c3ccccc3Sc3ccccc32)CC1", "CLASS_NAME": "t"}
{"COMPOUND": "N=C(N)SCc1ccc(Cl)cc1Cl (tested in a mixture with another compound)", "CLASS_NAME": "t"}
